- measurement.target: human PAD4 (Homo sapiens, UniProt Q9UM07)
- Construct: human PAD4 (NM_012387), A2P663, was PCR amplified; His-SUMO (N, cleaved yes)
- Sequence (Q9UM07 2-663): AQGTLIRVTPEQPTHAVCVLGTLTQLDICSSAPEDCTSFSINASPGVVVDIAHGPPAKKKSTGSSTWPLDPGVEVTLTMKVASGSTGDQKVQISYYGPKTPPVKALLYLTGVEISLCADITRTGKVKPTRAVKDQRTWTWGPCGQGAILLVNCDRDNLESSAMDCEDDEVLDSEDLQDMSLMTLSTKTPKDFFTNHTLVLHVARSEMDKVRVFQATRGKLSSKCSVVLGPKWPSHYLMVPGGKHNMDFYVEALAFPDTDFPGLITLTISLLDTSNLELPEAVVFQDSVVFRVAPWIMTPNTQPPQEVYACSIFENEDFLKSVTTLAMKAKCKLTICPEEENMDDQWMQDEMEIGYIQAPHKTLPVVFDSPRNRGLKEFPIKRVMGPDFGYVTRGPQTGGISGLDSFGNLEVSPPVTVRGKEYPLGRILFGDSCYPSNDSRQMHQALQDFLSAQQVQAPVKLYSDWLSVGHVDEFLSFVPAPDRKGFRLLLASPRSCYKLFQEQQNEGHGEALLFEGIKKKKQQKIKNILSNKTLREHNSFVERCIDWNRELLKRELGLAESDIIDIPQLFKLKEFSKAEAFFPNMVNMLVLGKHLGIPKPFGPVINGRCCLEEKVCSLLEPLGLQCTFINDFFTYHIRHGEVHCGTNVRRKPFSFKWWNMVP
- procedure.details: In vitro PAD4 BAEE biochemical assay
- measurement.parameters: human PAD4, BAEE substrate; 5 nM PAD4, 2 mM calcium chloride, 3 mM BAEE; geometric mean of multiple experiments
pIC50: −log10 of the molar value.
Criterion: pIC50 meeting or surpassing 7. Met: 1.0. Not met: 0.0.

Is pIC50 for "COc1cc(C(=O)N2[C@H]3CC[C@@H]2[C@H](N)[C@H](OCC(F)F)C3)cc2nc(-c3cc4ccc([C@@H](C)NC(=O)C56CC(F)(C5)C6)nc4n3CC3CC3)c(C)n12" at or above 7? 0.0

---
Reported pIC50 at or above 7? "COc1cc(C(=O)N2CCC[C@@H](N)CC2)cc2nc(-c3cc4ccc([C@@H](C)NC(=O)C56CC(F)(C5)C6)nc4n3CC3CC3)c(C)n12" 0.0

Determine whether this compound has pIC50 no lower than 7: "COc1cc(C(=O)N2[C@H]3CC[C@@H]2[C@H](N)C3)cc2nc(-c3cc4ccc([C@@H](C)NC(=O)c5cn(C)nc5Cl)nc4n3CC3CC3)c(C)n12" 1.0

Hello, I need to know if "COc1cc(C(=O)N2[C@H]3CC[C@@H]2[C@H](N)C3)cc2nc(-c3cc4ccc([C@@H](C)NC(=O)NC5CCOCC5)nc4n3CC3CC3)c(C)n12" has measured pIC50 not below 7. Thanks! 1.0

Quick check, pIC50 >= 7? COc1cc(C(=O)N2[C@H]3CC[C@@H]2[C@H](N)C3)cc2nc(-c3cc4ccc(N5CCCC(c6ccccc6)S5(=O)=O)nc4n3CC3CC3)c(C)n12 (some centres unmarked) 0.0

Given the entry "COc1ccccc1C(=O)N[C@H](C)c1ccc2cc(-c3nc4cc(C(=O)N5[C@H]6CC[C@@H]5[C@H](N)C6)cc(OC)n4c3C)n(CC3CC3)c2n1" , answer whether its pIC50 meets or surpasses 7. 0.0

Is the recorded value of pIC50 equal to or greater than 7 for this compound? "CCc1ccc2cc(-c3nc4cc(C(=O)N5[C@H]6CC[C@@H]5[C@H](N)C6)cc(OC)n4c3C)n(-c3nccs3)c2n1" 0.0

Check this compound for pIC50 at or above 7: "Cc1c(-c2cc3ccc(N(C(F)F)S(C)(=O)=O)nc3n2CC2CC2)nc2cc(C(=O)N3CCC[C@@H](N)C3)cc(N(C)C)n12" 0.0
